# tested system: Serine/threonine-protein kinase MRCK alpha (Homo sapiens)
# run conditions: at 10 µM
quantity: residual activity (%)
Write down the numeric answer in % and omit the unit.

Sample records with residual activity:
Data request: Given the entry COc1ccc(-c2cnc3c(-c4ccsc4)cnn3c2)cc1 , report its measured residual activity.
Data returned: 99

Data request: Can you handle COc1ccc(CNC(=O)Nc2ncc([N+](=O)[O-])s2)cc1 next?
Data returned: 104

Data request: Can you handle COc1cc2nccc(Oc3ccc(NC(=S)NC(=O)c4ccccc4C)cc3)c2cc1OC next?
Data returned: 124

Data request: Can you handle Oc1cccc(-c2nc(N3CCOCC3)c3oc4ncccc4c3n2)c1 next?
Data returned: 91

Data request: Can you handle NC(=O)c1cccc(-c2cc(Nc3ccc(OC(F)(F)F)cc3)ncn2)c1 next?
Data returned: 145

Others:
Data request: Given the entry O=C1NC(=O)c2c1c1c3ccccc3[nH]c1n1cncc21 , report its measured residual activity.
Data returned: 90

Data request: Can you handle O=c1cc(N2CCOCC2)oc2c1ccc1ccccc12 next?
Data returned: 99

Data request: Can you handle Nc1ncnc2[nH]nc(Nc3ccc(F)cc3)c12 next?
Data returned: 106

---

# tested system: SRSF protein kinase 2 (Homo sapiens) (UniProt P78362)
# Sequence (P78362 whole entry, looked up): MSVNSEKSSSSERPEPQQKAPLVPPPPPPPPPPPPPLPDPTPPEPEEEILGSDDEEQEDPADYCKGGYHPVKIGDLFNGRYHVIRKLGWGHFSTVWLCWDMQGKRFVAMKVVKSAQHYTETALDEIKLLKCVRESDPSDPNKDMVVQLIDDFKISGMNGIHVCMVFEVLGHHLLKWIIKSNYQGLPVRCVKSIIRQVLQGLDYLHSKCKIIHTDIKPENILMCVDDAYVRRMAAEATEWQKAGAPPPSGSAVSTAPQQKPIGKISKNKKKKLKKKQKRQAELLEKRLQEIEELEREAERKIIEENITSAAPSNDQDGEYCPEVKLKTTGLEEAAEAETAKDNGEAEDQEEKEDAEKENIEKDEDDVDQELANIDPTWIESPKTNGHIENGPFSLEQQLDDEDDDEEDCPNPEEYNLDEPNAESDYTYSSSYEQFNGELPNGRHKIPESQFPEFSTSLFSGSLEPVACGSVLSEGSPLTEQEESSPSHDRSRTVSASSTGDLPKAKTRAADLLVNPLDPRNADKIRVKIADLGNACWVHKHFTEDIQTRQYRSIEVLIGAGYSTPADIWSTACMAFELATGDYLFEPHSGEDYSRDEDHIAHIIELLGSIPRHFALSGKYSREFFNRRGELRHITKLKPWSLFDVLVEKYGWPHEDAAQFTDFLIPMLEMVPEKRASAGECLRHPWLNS
# run conditions: at 10 µM
Threshold 80%: residual activity strictly smaller gives t, otherwise f.

Worked set:
Data request: Bench note: check whether CCCCc1c(-c2ccc(O)cc2)[nH]c2nccnc12 shows residual activity below 80%
Data returned: f

Data request: Can you handle COc1cc2nccc(Oc3ccc(NC(=S)NC(=O)c4ccccc4C)cc3)c2cc1OC next?
Data returned: f

Data request: Can you handle NC(=O)c1ccc(-c2nc(-c3ccc4c(c3)OCCO4)c(-c3ccccn3)[nH]2)cc1 next?
Data returned: f

Data request: Can you handle O=C1Nc2ccc(Cl)cc2/C1=C/c1cc(Cl)c(O)c(Cl)c1 next?
Data returned: t

Data request: Can you handle O=C(CCCc1ccc(-c2ccccc2F)cc1)Nc1ccc(O)cc1 next?
Data returned: f

Data request: Can you handle CC(C)(C)n1nc(Cc2cccc3ccccc23)c2c(N)ncnc21 next?
Data returned: f

Data request: Can you handle CC(C)c1nn(-c2c(Cl)cccc2Cl)c2nc(Cc3ccc(OCCO)cc3)[nH]c(=O)c12 next?
Data returned: t

Now consider a different molecule.
Data request: Bench note: check whether N#Cc1c(NC(=O)c2cccc3ccccc23)sc2c1CCCC2 shows residual activity below 80%
Data returned: f

---

residual activity for assorted compounds
# tested system: Serine/threonine-protein kinase Nek2 (Homo sapiens)
# run conditions: at 10 µM
# Description: Millipore: Percentage of residual kinase activity of NEK2 at 10uM relative to control. Control inhibitor: Phosphoric acid* at 0.3uM. Buffer: 8 mM MOPS pH 7.0, 0.2 mM EDTA
Write down the numeric answer in % and omit the unit.

Sample records with residual activity:
Data request: Given the entry COc1cc2ncnc(Nc3cccc(Cl)c3)c2cc1OC , report its measured residual activity.
Data returned: 111

Data request: Can you handle Cn1sc(=O)n(Cc2ccccc2)c1=O next?
Data returned: 87

Query compound follows.
Data request: Given the entry CC(C)N(CCC(=O)c1ccc2ccccc2c1)Cc1ccccc1 , report its measured residual activity.
Data returned: 88

---

# tested system: Receptor-type tyrosine-protein kinase FLT3 (Homo sapiens) (UniProt P36888)
# Sequence (P36888 whole entry): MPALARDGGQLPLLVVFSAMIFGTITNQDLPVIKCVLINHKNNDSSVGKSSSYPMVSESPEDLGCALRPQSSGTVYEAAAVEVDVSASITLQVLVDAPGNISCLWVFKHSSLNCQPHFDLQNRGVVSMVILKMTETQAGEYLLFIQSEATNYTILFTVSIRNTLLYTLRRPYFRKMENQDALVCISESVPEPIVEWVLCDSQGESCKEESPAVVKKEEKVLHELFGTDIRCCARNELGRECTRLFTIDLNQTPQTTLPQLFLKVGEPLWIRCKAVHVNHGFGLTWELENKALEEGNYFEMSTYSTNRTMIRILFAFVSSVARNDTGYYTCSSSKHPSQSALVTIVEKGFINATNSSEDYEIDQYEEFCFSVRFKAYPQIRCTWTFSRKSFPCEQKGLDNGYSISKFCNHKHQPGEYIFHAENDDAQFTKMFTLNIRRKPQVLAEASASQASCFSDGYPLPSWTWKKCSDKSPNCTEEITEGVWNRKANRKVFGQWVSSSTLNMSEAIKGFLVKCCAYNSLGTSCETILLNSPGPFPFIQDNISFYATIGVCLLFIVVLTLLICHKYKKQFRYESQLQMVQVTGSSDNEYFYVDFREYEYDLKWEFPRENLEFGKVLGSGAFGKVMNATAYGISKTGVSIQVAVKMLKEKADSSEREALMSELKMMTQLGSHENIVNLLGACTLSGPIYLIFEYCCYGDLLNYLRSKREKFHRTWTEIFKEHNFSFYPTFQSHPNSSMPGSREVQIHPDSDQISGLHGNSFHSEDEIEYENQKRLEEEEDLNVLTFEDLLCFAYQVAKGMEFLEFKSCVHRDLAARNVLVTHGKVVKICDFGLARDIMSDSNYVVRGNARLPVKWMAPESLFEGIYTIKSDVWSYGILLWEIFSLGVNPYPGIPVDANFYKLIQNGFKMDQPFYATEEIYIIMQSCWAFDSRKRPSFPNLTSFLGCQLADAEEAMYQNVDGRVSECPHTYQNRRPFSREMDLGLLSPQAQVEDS
# run conditions: at 10 µM
quantity: residual activity (%)
Write down the numeric answer in % and omit the unit.

Data request: Given the entry O=C1Cc2c([nH]c3ccc(Br)cc23)-c2ccccc2N1 , report its measured residual activity.
Data returned: 34

Data request: Can you handle CSc1nc(-c2ccc(F)cc2)c(-c2ccnc(NC(C)c3ccccc3)c2)[nH]1 (stereo not drawn) next?
Data returned: 83

Data request: Can you handle O=C1Cc2c([nH]c3ccc([N+](=O)[O-])cc23)-c2ccccc2N1 next?
Data returned: 20

Data request: Can you handle NC(=O)Nc1sc(-c2ccc(F)cc2)cc1C(N)=O next?
Data returned: 3

Data request: Can you handle Nc1n[nH]c2nc3ccccc3nc12 next?
Data returned: 45

Query compound follows.
Data request: Given the entry Nc1ncnc2c1c(-c1ccc(Oc3ccccc3)cc1)cn2C1CCCC1 , report its measured residual activity.
Data returned: 0

---

# tested system: Homeodomain-interacting protein kinase 1 (Homo sapiens)
# run conditions: at 1 µM
# Description: Millipore: Percentage of residual kinase activity of HIPK1 at 1uM relative to control. Control inhibitor: Phosphoric acid* at 0.3uM. Buffer: 8 mM MOPS pH 7.0, 0.2 mM EDTA
quantity: residual activity (%)
Write down the numeric answer in % and omit the unit.

Sample records with residual activity:
Data request: Given the entry O=C1NC(=O)C(c2cn(CCCO)c3ncccc23)=C1c1cnccn1 , report its measured residual activity.
Data returned: 93

Data request: Can you handle NC(=O)Nc1sc(-c2ccc(F)cc2)cc1C(N)=O next?
Data returned: 106

Data request: Can you handle COc1ccc(Cl)cc1NC(=O)Nc1cc(C)nc2ccccc12 next?
Data returned: 97

Query molecule follows.
Data request: Given the entry O=C(CCCc1ccc(-c2ccccc2F)cc1)Nc1ccc(O)cc1 , report its measured residual activity.
Data returned: 108

---

# tested system: Muscle, skeletal receptor tyrosine-protein kinase (Homo sapiens)
# run conditions: at 10 µM
residual activity for assorted compounds
Write down the numeric answer in % and omit the unit.

Sample records with residual activity:
Data request: Given the entry Cn1sc(=O)n(Cc2ccccc2)c1=O , report its measured residual activity.
Data returned: 86

Data request: Can you handle O=C1Nc2ccccc2/C1=C\c1c(Cl)[nH]c2ccccc12 next?
Data returned: 70

Data request: Can you handle O=C(CCCc1ccc(-c2ccccc2F)cc1)Nc1ccc(O)cc1 next?
Data returned: 84

Data request: Can you handle CC(C)c1nn(-c2c(Cl)cccc2Cl)c2nc(Cc3ccc(OCCO)cc3)[nH]c(=O)c12 next?
Data returned: 87

Data request: Can you handle O=C1Cc2c([nH]c3ccc(Br)cc23)-c2ccccc2N1 next?
Data returned: 3

Others:
Data request: Given the entry Nc1ncnc2[nH]nc(Nc3ccc(F)cc3)c12 , report its measured residual activity.
Data returned: 76

Data request: Can you handle CSc1nc(-c2ccc(F)cc2)c(-c2ccnc(NC(C)c3ccccc3)c2)[nH]1 (configuration not stated) next?
Data returned: 81

Data request: Can you handle O=C1C(Cl)=C(N2C(=O)CCC2=O)C(=O)c2ccccc21 next?
Data returned: 84

Data request: Can you handle CCN(CC)CCNC(=O)c1c(C)[nH]c(/C=C2\C(=O)Nc3ccc(Cl)cc32)c1C next?
Data returned: 0

---

residual activity for assorted compounds
# tested system: Interleukin-1 receptor-associated kinase 4 (Homo sapiens) (UniProt Q9NWZ3)
# Sequence (Q9NWZ3 whole entry): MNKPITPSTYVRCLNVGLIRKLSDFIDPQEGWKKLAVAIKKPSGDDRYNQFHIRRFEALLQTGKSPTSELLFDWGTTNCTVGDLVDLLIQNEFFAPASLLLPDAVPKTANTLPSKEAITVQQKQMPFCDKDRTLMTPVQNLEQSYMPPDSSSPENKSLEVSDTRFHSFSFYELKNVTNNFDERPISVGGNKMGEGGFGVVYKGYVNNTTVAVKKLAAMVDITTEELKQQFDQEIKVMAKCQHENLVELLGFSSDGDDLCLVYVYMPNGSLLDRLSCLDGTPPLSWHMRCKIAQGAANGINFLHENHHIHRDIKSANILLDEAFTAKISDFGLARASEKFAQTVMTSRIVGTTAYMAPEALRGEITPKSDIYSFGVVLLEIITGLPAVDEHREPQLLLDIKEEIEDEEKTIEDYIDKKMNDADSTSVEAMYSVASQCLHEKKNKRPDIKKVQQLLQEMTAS
# run conditions: at 10 µM
Write down the numeric answer in % and omit the unit.

Sample records with residual activity:
Data request: Given the entry COc1ccc(-c2cnc3c(-c4ccsc4)cnn3c2)cc1 , report its measured residual activity.
Data returned: 94

Data request: Can you handle CCOC(=O)c1c(C)[nH]c(/C=C2\C(=O)Nc3ccccc32)c1C next?
Data returned: 49

Data request: Can you handle O=C1NC(=O)C(c2c[nH]c3ccccc23)=C1c1c[nH]c2ccccc12 next?
Data returned: 27

Data request: Can you handle O=c1cc(N2CCOCC2)oc2c1ccc1ccccc12 next?
Data returned: 88

Data request: Can you handle O=C1NC(=O)c2c1c1c3ccccc3[nH]c1n1cncc21 next?
Data returned: 56

Query compound follows.
Data request: Given the entry O=C1Cc2c([nH]c3ccc(Br)cc23)-c2ccccc2N1 , report its measured residual activity.
Data returned: 36

---

# tested system: Proto-oncogene tyrosine-protein kinase ROS (Homo sapiens)
# run conditions: at 1 µM
quantity: residual activity (%)
Write down the numeric answer in % and omit the unit.

Sample records with residual activity:
Data request: Given the entry Nc1ncnc2c1c(-c1ccc(Oc3ccccc3)cc1)cn2C1CCCC1 , report its measured residual activity.
Data returned: 88

Data request: Can you handle CCCCc1c(-c2ccc(O)cc2)[nH]c2nccnc12 next?
Data returned: 93

Data request: Can you handle COc1cc2nccc(Oc3ccc(NC(=O)Nc4cc(C)on4)c(Cl)c3)c2cc1OC next?
Data returned: 24

Data request: Can you handle O=c1cc(N2CCOCC2)oc2c1ccc1ccccc12 next?
Data returned: 100

Data request: Can you handle O=c1cc(N2CCNCC2)oc2c(-c3ccccc3)cccc12 next?
Data returned: 97

Others:
Data request: Given the entry O=C1Nc2ccc(Cl)cc2/C1=C/c1cc(Cl)c(O)c(Cl)c1 , report its measured residual activity.
Data returned: 92

Data request: Can you handle Cn1sc(=O)n(Cc2ccccc2)c1=O next?
Data returned: 79

Data request: Can you handle O=C(O)/C=C/c1cc(Br)c(Br)c(Br)c1Br next?
Data returned: 108

Data request: Can you handle N#Cc1c(NC(=O)c2cccc3ccccc23)sc2c1CCCC2 next?
Data returned: 93

Data request: Can you handle COc1cc2ncnc(Nc3cccc(Cl)c3)c2cc1OC next?
Data returned: 100

---

# tested system: Calcium/calmodulin-dependent protein kinase type II subunit gamma (Homo sapiens)
# run conditions: at 10 µM
quantity: residual activity (%)
Write down the numeric answer in % and omit the unit.

Data request: Provide value of residual activity for this record tested with Calcium/calmodulin-dependent protein kinase type II subunit gamma (Homo sapiens): COc1cc2c(cc1OC)-c1n[nH]c(Nc3cccc(F)c3)c1C2
Data returned: 60

Data request: Can you handle O=C(O)/C=C/c1cc(Br)c(Br)c(Br)c1Br next?
Data returned: 31

Data request: Can you handle NCCNc1ncc(C(N)=O)c(Nc2cccc(C(F)(F)F)c2)n1 next?
Data returned: 3

Data request: Can you handle O=c1cc(N2CCNCC2)oc2c(-c3ccccc3)cccc12 next?
Data returned: 88

Data request: Can you handle Cn1c2ccccc2c2c3c(c4c5ccccc5n(CCC#N)c4c21)CNC3=O next?
Data returned: -5

Data request: Can you handle COc1ccc(-c2cnc3c(-c4ccsc4)cnn3c2)cc1 next?
Data returned: 79

Data request: Can you handle O=C1NC(=O)C(c2c[nH]c3ccccc23)=C1c1c[nH]c2ccccc12 next?
Data returned: 4

Data request: Can you handle N#Cc1c(NC(=O)c2cccc3ccccc23)sc2c1CCCC2 next?
Data returned: 97

Query compound follows.
Data request: Provide value of residual activity for this record tested with Calcium/calmodulin-dependent protein kinase type II subunit gamma (Homo sapiens): O=C1Nc2ccc(Cl)cc2/C1=C/c1cc(Cl)c(O)c(Cl)c1
Data returned: 10
